In this section, each of the binders is paired with its reported Cells stained (%).
Molecular target: T1, PTPRG, endogenous in H929 multiple myeloma cells (human, UniProt P23470 20-1445)
T1 construct: Native protein on H929 cells (flow cytometry, siRNA knockdown) and in H929 lysates (IP/MS); also called phosphatase receptor type γ
T1 sequence (P23470 20-1445 limits assumed): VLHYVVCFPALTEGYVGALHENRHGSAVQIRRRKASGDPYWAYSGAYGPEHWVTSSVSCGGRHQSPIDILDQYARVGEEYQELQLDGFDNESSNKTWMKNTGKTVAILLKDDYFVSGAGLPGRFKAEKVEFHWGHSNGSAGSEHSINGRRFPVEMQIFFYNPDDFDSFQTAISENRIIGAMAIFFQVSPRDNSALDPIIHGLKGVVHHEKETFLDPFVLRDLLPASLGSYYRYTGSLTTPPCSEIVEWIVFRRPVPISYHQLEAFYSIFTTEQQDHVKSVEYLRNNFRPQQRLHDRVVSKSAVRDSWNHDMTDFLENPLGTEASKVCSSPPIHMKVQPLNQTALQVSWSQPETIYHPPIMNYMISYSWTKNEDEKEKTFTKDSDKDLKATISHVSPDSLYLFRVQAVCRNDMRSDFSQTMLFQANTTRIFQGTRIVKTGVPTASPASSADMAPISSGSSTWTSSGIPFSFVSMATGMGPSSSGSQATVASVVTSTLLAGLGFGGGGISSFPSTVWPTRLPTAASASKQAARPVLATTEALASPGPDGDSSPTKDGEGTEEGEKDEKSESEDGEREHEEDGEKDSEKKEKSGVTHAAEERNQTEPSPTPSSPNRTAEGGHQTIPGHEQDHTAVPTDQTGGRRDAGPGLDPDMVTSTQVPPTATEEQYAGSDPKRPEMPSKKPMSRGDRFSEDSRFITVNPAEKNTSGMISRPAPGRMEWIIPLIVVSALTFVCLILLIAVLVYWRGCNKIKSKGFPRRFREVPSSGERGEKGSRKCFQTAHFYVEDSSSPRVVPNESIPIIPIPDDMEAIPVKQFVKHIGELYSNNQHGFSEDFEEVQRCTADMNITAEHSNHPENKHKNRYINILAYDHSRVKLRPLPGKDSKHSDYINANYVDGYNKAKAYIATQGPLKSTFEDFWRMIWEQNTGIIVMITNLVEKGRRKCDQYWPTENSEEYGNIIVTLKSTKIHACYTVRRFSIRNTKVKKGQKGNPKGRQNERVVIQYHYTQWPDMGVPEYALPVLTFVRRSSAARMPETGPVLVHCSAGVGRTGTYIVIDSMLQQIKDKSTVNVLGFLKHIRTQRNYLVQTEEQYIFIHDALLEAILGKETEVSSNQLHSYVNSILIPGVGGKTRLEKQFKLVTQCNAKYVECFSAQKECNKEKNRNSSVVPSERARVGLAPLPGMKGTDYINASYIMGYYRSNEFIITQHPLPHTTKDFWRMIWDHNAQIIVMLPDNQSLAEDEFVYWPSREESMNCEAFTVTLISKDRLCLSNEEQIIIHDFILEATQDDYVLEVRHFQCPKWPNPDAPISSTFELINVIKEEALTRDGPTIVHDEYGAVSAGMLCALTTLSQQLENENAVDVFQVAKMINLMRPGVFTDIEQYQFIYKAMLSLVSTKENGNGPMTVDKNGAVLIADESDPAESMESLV
Assay: flow cytometry, H929 + NT Green siRNA; None 1.35
Write it as a number; the unit % goes unstated.

TH9-0022 (antibody, human IgG1, kappa, L234A L235A, V domains shown, also called TH9-022; negative control) VH: QSLEESGGRLVTPGTPLTLTCTVSGFSLSSYAMNWVRQAPGKGLEWIGIINSYGSTYYASWAKGRFTISKTSTTVDLKITSPTTEDTATYFCARVTYDSYGYGYAPYGMDLWGPGTLVTVSS VL: LVMTQTPSSTSNAVGGTVTIKCQASQSIGNVLAWYQQKPGQPPKLLIYAASTLASGVPSRVGGSRSGTEYTLTISGVQREDAATYYCLGSDSDSDIAFGGGTELEILR ... 1.86
HW-17 chimeric rabbit-human IgG1 LA/LA/PG (antibody, V domains shown, Fc-silenced (L234A/L235A/P329G) IgG1, lambda; Alexa Fluor 647-labeled in single-step flow cytometry; Cluster C-1) VH: QSLGESRGRLVTPDETLTLTCTVSGIDLSSNAMSWVRQAPGEGLEWIGTINTGGRAYYASWAKGRFTISRTSTTVDLKMTSLTTEDTATYFCARERYSDGRAYDIWGPGTLVTISS VL: SFVLTQPASVQVNLGQTVSLTCTADTLSRRYASWYQQKPGQAPVLLIYTDSNRPSGIPDRFSGSSSGNTATLTISGAQAGDEADYYCATDDGSGSIYQYVFGGGTQLTVTG ... 99
HW-70 chimeric rabbit-human IgG1 LA/LA/PG (antibody, V domains shown, Fc-silenced (L234A/L235A/P329G) IgG1, lambda; Alexa Fluor 647-labeled in single-step flow cytometry; Cluster C-1) VH: QSLEESGGRLVTPGTPLTLTCTVSGFSLSSNAMSWVRQAPGKGLEWIGTIDGYGYTYYASWAKGRFTVSKTSTTVDLKITSPTTEDTATYFCAREIYLGSNFWGPGTLVTISS VL: SFVLTQPASVQVNLGQTVSLTCTADTLSRRYASWYQQKPGQAPVLLIYRDTSRPSGVPDRFSGSSSGNTATLTISGAQAGDEADYYCATADGSGSSYQFVFGGGTQLTVTG ... 98.9
HW-25 chimeric rabbit-human IgG1 LA/LA/PG (antibody, V domains shown, Fc-silenced (L234A/L235A/P329G) IgG1, lambda; Alexa Fluor 647-labeled in single-step flow cytometry; Cluster C-1) VH: QSLEESGGRLVTPGTPLTLTCTVSGFSLSSYAMGWVRQAPGKGLEWIGIIDSRGSTYYATWAKGRFTISKTSTTVDLKITSPTTEDTATYFCAREDSYYYDSFNLWGPGTLVTVSS VL: SFVLTQPASVQVNLGQTVSLTCTADTLSRRYASWYQQKPGQAPVLLIYRDTSRPSGVPDRFSGSSSGNTATLTISGAQAGDEADYYCATSDGSGSSYQCVFGGGTQLTVTG ... 95.7
HW-1 chimeric rabbit-human IgG1 LA/LA/PG (antibody, V domains shown, Fc-silenced (L234A/L235A/P329G) IgG1, lambda; Alexa Fluor 647-labeled in single-step flow cytometry; Prototype of cluster C-1) VH: QSLEESGGGLFKPTDTLTLTCTASGFSLGSSYAISWVRQAPGKELEWIGTIDSGRAYYARWAKSRSTITRNTNENTVTLKMTSLTAADTATYFCARDLIPTYSQDIWGPGTLVTISS VL: SFVLTQPASVQVNLGQTVSLTCTADTLSRRYASWYQQKPGQAPVLLIYRDTSRPSGVPDRFSGSSSGNTATLTISGAQAGDEADYYCATSDGSGNSYQYVFGGGTQLTVTS ... 99.4

Record HW-42 chimeric rabbit-human IgG1 LA/LA/PG (antibody, V domains shown, Fc-silenced (L234A/L235A/P329G) IgG1, lambda; Alexa Fluor 647-labeled in single-step flow cytometry; Cluster C-1) VH: QSVKESEGGLFKPADTLTLTCTVSGFSLSSNEISWVRQAPGEGLEYIGIIDTGGRAYYAVWARSRSTITRNTNLNTVTLKMTSLTAADTATYFCARGGVDTEWYAFSSWGPGTLVTVPS VL: SFVLTQPASVQVNLGQTVSLTCTADTLSRRYASWYQQKPGQAPVLLIFRDTSRPSGVPDRFSGSSSGDTATLTISGAQAGDEADYYCATSDGSGSNYQYVFGGGTQLTVTG . Reported Cells stained (%): 97.2
